# system: CYP2D6 (Homo sapiens, UniProt P10635)
# Sequence (P10635 whole entry): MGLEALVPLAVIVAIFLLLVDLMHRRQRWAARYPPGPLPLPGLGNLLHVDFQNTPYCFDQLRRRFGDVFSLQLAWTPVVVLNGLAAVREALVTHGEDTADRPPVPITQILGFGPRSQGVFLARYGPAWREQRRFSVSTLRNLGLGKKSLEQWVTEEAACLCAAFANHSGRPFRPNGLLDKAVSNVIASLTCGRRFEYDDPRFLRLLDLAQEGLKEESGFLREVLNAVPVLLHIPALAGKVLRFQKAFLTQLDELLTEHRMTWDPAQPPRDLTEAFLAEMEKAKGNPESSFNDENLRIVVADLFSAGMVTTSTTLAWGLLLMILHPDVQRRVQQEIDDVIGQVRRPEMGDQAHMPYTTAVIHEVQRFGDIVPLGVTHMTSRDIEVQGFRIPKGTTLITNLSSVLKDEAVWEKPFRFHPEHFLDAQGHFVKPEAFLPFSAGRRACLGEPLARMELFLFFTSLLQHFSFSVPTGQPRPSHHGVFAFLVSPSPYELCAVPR
# test: Inhibition of human microsomal CYP2D6 expressed in insect cells at 10 uM using MOBFC as substrate measured every minute for 1 hr by fluorescence-based assay
# Type: ADME
# setup.conditions: probe MOBFC
quantity.kind: inhibition at 1 h, 10 µM (%)

Cc1c(-c2ccc(N3CCC(F)(F)C3)cc2)[nH]c2cc(F)cc(F)c2c1=O    0

---

Below, each of the compounds is paired with its reported logD value.
# test: Lipophilicity, logD of compound at pH 7.4
# setup.conditions: buffer
quantity.kind: logD

Cc1c(-c2ccc(N3CCCCCC3)cc2)[nH]c2cc(F)cc(F)c2c1=O    4.8
COc1cc2[nH]c(-c3ccc(N4CCCCC4)cc3)c(C)c(=O)c2cc1F    3.9
Cc1c(-c2ccc(N3CC[C@H](F)C3)cc2)[nH]c2cc(F)cc(F)c2c1=O    3.6
Cc1c(-c2ccc(N3CC[C@@H](F)C3)cc2)[nH]c2cc(F)cc(F)c2c1=O    3.8
COc1ccc2c(=O)c(Cl)c(-c3ccc(N4CCCCC4)cc3)[nH]c2c1    3.6
Cc1c(-c2ccc(N3CCC[C@@H](C)C3)cc2)[nH]c2cc(F)cc(F)c2c1=O    4.7
